System: MERTK
particulars: concentration: 1 μM, replicates: in singlicate; n = 1
# %Inh per record follows
Quick note: give the figure in %, leave out the unit.

CCCCc1nn2ncccc2c1-c1ccnc(Nc2ccc(N3CCN(C)CC3)cc2)n1 [GW684941] = 56
COC(=O)Nc1nc2cc(Oc3ccc(NC(=O)Nc4cc(C(F)(F)F)ccc4F)cn3)ccc2[nH]1.Cl.Cl [GW681170] = 95.7
O=C(Nc1cccc(-c2nn3ccccc3c2-c2ccnc(Nc3cccc(F)c3)n2)c1)c1c(F)ccc(F)c1Cl [GSK357952] = 51
Cl.Cl.NCC(NC(=O)c1cc(-c2ccccc2)c(-c2ccnc3[nH]ccc23)s1)c1ccccc1 (centres unmarked) [GSK1321561] = 44
CN(C)S(=O)(=O)c1cc(-c2ccc3nccc(-c4cccc(S(N)(=O)=O)c4)c3c2)cnc1N [GSK1669921] = 33
O=C(NC1CCN(c2ccnc(Nc3ccc(F)cc3)n2)C1)c1cc2ccccc2s1 (centres unmarked) [GSK1379716] = 38

Ask: Look up and report measured %Inh (MERTK) for the following compound: Fc1ccc(-c2ncn(C3CCNCC3)c2-c2ccnc(Oc3ccc(-c4ccccc4)cc3)n2)cc1 [SB-245391]
Reply: 0

Ask: // output %Inh; input Cl.Cl.NCC(C(=O)Nc1cc(Br)c(-c2ccnc3[nH]ccc23)s1)c1ccccc1 (centres unmarked) [GSK1269851] ; system MERTK;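 note: KINOMEscan kinase panel screen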
Reply: 19
